Values compiled from paper PMC5540273.

Field: %Inh. Provide a value for each of the compounds that follow.
system: SRPK3; details: concentration: 1 μM,replicates: in singlicate; n = 1;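 note: KINOMEscan kinase panel screen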
The reply should contain only the number, in %.

Challenge: Give me measured %Inh, please, for this compound: Cc1occc1-c1nc(N)c(OC[C@@H](N)Cc2c[nH]c3ccccc23)cc1-c1cc2c(C)n[nH]c2cn1 [GSK1660450]
Response given: 56

Challenge: Recall and state the measured %Inh for COc1ccc(C[C@@H](CN)NC(=O)c2cc(Br)c(-c3ccnc4[nH]ccc34)s2)cc1.Cl.Cl [GSK1389063] .
Response given: 28

Challenge: Please give the documented %Inh of C[C@@H](Oc1cc(-c2cnn(C3CCNCC3)c2)cnc1N)c1c(Cl)ccc(F)c1Cl
Response given: 33

Challenge: Supply measured %Inh of CCN(CC)CCOc1ccc(Nc2ncc3cc(-c4c(Cl)cccc4Cl)c(=O)n(C)c3n2)cc1 [SB-601273] in your reply.
Response given: 9

Challenge: Answer with reported %Inh of Cc1n[nH]c2ccc(-c3cc(OC[C@@H](N)Cc4ccccc4)cnc3-c3ccoc3)cc12.O=C(O)C(F)(F)F.O=C(O)C(F)(F)F [GSK507358]
Response given: 34

Challenge: Report %Inh for Cc1cc(C(=O)Nc2ccc(Oc3ccc4nc(NC(=O)C5CC5)cn4n3)cc2)nn1-c1ccccc1
Response given: 30

* * *

test system: PRKG2; conditions: concentration: 1 μM,replicates: in singlicate; n = 1
Assay metric: %Inh (%)
Hi! Could you send only the number? It should be in %, unit omitted.

Challenge: Give the measured %Inh for CCN(CC)CCCCNc1ncc2cc(-c3c(Cl)cccc3Cl)c(NC(=O)NC(C)(C)C)nc2n1
Response given: 7

Challenge: Supply recorded %Inh for Cl.Cl.NC[C@H](Cc1ccc(C(F)(F)F)cc1)NC(=O)c1cc(Br)c(-c2ccnc3[nH]ccc23)s1 here.
Response given: 98.7

Challenge: Look up and state reported %Inh for Cc1ccc(-n2nc(C(C)(C)C)cc2NC(=O)Nc2ccc(OCCN3CCOCC3)c3ccccc23)cc1
Response given: 3

Challenge: Give the value of %Inh reported for the following: Cc1n[nH]c2ccc(-c3cc(OC[C@@H](N)Cc4ccccc4)cnc3-c3ccoc3)cc12.O=C(O)C(F)(F)F.O=C(O)C(F)(F)F
Response given: 0

Challenge: Determine its reported %Inh: C[C@@H]1CCN(C(=O)CC#N)C[C@@H]1N(C)c1ncnc2[nH]ccc12
Response given: 0

Challenge: Consider the compound Cc1cc2cn[nH]c2cc1-c1cccc2c(N)c(C(N)=O)nnc12 and give its recorded %Inh.
Response given: 23

Challenge: Name the recorded %Inh of the compound listed here: Cc1occc1-c1nc(N)c(OC[C@@H](N)Cc2c[nH]c3ccccc23)cc1-c1cc2c(C)n[nH]c2cn1
Response given: 96.2

Challenge: Determine from records and report %Inh for COc1ccc(C[C@@H](CN)NC(=O)c2cc(Br)c(-c3ccnc4[nH]ccc34)s2)cc1.Cl.Cl
Response given: 98.9

Challenge: Please list %Inh recorded for the compound CNC(=O)c1ccccc1Sc1ccc2c(/C=C/c3ccccn3)n[nH]c2c1
Response given: 0

* * *

Kindly state %Inh for each of the entries shown.
system: DAPK2; settings: concentration: 1 μM,replicates: in singlicate; n = 1
Provide only the numeric value, understood in %.

Challenge: Using the record for Cc1cc(C(=O)Nc2ccc(Oc3ccc4nc(NC(=O)C5CC5)cn4n3)cc2)nn1-c1ccccc1 , state its measured %Inh.
Response given: 0

Challenge: State, in one line, measured %Inh of CC(C)Nc1cc(-c2ccc3c(N)n[nH]c3c2)nc(N)n1
Response given: 42

Challenge: Hello, please tell me recorded %Inh for this one: O=C(NCCNc1ccnc(NCc2ccc(F)cc2)n1)c1cc2ccccc2s1
Response given: 0

Challenge: Hello, please tell me recorded %Inh for this one: COc1ccc(C[C@@H](CN)NC(=O)c2cc(Br)c(-c3ccnc4[nH]ccc34)s2)cc1.Cl.Cl
Response given: 13
